- Procedure details: Terminal elimination in dog at 0.6 mg/kg, iv
- Format: ADME, organism-based, Canis lupus familiaris
- Set-up: dose 0.6 mg/kg, route intravenous
- Protocol conditions: in vivo

# Cpd smiles, half-life
measured = [
    ("CCCn1cnc(C[C@H](CCCN)C(=O)O)c1", "1.4 h"),
]
